These data points were gathered from patent US20220153745A1.

biological target: mTOR (Homo sapiens, UniProt P42345); construct: human mTOR amino acids from 1360 to 2549; purchased Invitrogen 4753; host or cells: insect cells; experiment: mTOR kinase assay (TR-FRET, for comparative purposes); type: biochemical; settings: read-out: mTOR % inhibition @ 1 μM, mean inhibition at 1 μM test compound, 40 μM ATP
Sequence (P42345 1360-2549): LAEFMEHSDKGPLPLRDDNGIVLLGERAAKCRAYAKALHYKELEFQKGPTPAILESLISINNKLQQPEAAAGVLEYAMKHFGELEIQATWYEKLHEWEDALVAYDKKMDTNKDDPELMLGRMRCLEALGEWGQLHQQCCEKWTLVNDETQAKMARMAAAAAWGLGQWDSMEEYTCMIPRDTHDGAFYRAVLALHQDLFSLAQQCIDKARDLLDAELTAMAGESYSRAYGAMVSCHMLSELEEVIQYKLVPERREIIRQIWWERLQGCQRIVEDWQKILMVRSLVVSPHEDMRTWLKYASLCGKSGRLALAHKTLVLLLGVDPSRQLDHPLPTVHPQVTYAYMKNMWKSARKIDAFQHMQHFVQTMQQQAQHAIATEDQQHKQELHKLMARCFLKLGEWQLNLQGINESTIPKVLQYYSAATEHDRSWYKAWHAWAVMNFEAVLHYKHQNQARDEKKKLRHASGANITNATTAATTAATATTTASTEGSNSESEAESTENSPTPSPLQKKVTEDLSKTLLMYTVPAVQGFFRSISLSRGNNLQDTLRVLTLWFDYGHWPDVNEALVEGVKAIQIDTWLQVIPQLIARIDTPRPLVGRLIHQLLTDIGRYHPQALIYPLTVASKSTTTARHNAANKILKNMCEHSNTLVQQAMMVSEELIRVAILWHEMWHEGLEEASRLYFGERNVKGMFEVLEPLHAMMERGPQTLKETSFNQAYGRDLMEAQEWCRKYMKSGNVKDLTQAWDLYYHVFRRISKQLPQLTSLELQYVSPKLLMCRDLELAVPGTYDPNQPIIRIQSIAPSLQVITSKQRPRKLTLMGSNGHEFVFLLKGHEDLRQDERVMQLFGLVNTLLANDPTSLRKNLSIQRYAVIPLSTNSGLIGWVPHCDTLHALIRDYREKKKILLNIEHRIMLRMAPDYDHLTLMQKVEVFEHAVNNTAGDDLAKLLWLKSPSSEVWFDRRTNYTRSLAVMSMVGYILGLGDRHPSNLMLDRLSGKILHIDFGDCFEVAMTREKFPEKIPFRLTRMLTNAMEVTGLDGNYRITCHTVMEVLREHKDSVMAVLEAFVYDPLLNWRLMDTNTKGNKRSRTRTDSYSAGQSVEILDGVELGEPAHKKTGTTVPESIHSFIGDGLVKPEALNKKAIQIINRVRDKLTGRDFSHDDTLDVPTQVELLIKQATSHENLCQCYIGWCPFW
Structures can show the parent of a compound that is named as a salt.
Categories are assigned from the measured inhibition at 1 µM using these intervals: low end (below 5%), middle (5% to below 10%), high end (10% or more)

- Compound: "CCOCc1c(-c2cc3cc(C)cc(OC)c3s2)c2c(N)ncnn2c1CN1CCNC1=O"
  Target: "mTOR (Homo sapiens, UniProt P42345)"
  Class Assignment: "high end"
- Compound: "COCc1c(-c2cc3cc(C)cc(OC)c3s2)c2c(N)ncnn2c1C#N"
  Target: "mTOR (Homo sapiens, UniProt P42345)"
  Class Assignment: "middle"
- Compound: "COCc1c(-c2cc3cc(C)cc(OC)c3s2)c2c(N)ncnn2c1CN1CCNC(=O)C1"
  Target: "mTOR (Homo sapiens, UniProt P42345)"
  Class Assignment: "middle"
- Compound: "CCOCc1c(-c2cc3cc(C)cc(OC)c3s2)c2c(N)ncnn2c1CN1CCNC(=O)C1 [Example 5]"
  Target: "mTOR (Homo sapiens, UniProt P42345)"
  Class Assignment: "middle"
- Compound: "COc1cc(C)cc2cc(-c3c(CNC(C)=O)c(CN4CCN(C(C)=O)CC4)n4ncnc(N)c34)sc12"
  Target: "mTOR (Homo sapiens, UniProt P42345)"
  Class Assignment: "high end"
- Compound: "CCOCc1c(-c2cc3cc(C)cc(OC)c3s2)c2c(N)ncnn2c1CN1CCS(=O)(=O)CC1"
  Target: "mTOR (Homo sapiens, UniProt P42345)"
  Class Assignment: "middle"
- Compound: "COc1cc(C)cc2cc(-c3c(CNCC(C)(C)O)c(CN4CCN(C(C)=O)CC4)n4ncnc(N)c34)sc12"
  Target: "mTOR (Homo sapiens, UniProt P42345)"
  Class Assignment: "low end"
- Compound: "COc1cc(C)cc2cc(-c3c(CN4CCCC(O)C4)c(CN4CCNCC4)n4ncnc(N)c34)sc12 (racemic) [Example 40, trihydrochloride]"
  Target: "mTOR (Homo sapiens, UniProt P42345)"
  Class Assignment: "low end"
- Compound: "CCNCc1c(-c2cc3cc(C)cc(OC)c3s2)c2c(N)ncnn2c1CN1CCNCC1 [Example 38, trihydrochloride]"
  Target: "mTOR (Homo sapiens, UniProt P42345)"
  Class Assignment: "high end"
- Compound: "CCOCc1c(-c2cc3cc(C)cc(OC)c3s2)c2c(N)ncnn2c1CN1CCOCC1"
  Target: "mTOR (Homo sapiens, UniProt P42345)"
  Class Assignment: "middle"
- Compound: "COc1cc(C)cc2cc(-c3c(CNCC(=O)O)c(CN4CCNCC4)n4ncnc(N)c34)sc12 [Example 48, trihydrochloride]"
  Target: "mTOR (Homo sapiens, UniProt P42345)"
  Class Assignment: "low end"
- Compound: "COc1cc(C)cc2cc(-c3c(COCC(=O)O)c(CN4CCNCC4)n4ncnc(N)c34)sc12"
  Target: "mTOR (Homo sapiens, UniProt P42345)"
  Class Assignment: "low end"
- Compound: "COc1cc(C)cc2cc(-c3c(CN4CCNC(=O)C4)c(CN4CCN(C=O)CC4)n4ncnc(N)c34)sc12"
  Target: "mTOR (Homo sapiens, UniProt P42345)"
  Class Assignment: "low end"
- Compound: "COc1cc(C)cc2cc(-c3c(CN4CCNC(=O)C4)c(Cl)n4ncnc(N)c34)sc12"
  Target: "mTOR (Homo sapiens, UniProt P42345)"
  Class Assignment: "low end"
- Compound: "CCCOCc1c(-c2cc3cc(C)cc(OC)c3s2)c2c(N)ncnn2c1CN1CCNCC1"
  Target: "mTOR (Homo sapiens, UniProt P42345)"
  Class Assignment: "middle"
- Compound: "COc1cc(C)cc2cc(-c3c(CN[C@H]4CCNC4=O)c(CN4CCOCC4)n4ncnc(N)c34)sc12"
  Target: "mTOR (Homo sapiens, UniProt P42345)"
  Class Assignment: "middle"
- Compound: "COc1cc(C)cc2cc(-c3c(CN)c(CN4CCNCC4)n4ncnc(N)c34)sc12 [Example 62, trihydrochloride]"
  Target: "mTOR (Homo sapiens, UniProt P42345)"
  Class Assignment: "low end"
- Compound: "COc1cc(C)cc2cc(-c3c(CNC(C)=O)c(CN4CCNC(=O)C4)n4ncnc(N)c34)sc12"
  Target: "mTOR (Homo sapiens, UniProt P42345)"
  Class Assignment: "middle"
- Compound: "COCc1c(-c2cc3cc(C)cc(OC)c3s2)c2c(N)ncnn2c1CN1CC[C@](C)(N)C1 [Example 14, trihydrochloride]"
  Target: "mTOR (Homo sapiens, UniProt P42345)"
  Class Assignment: "high end"
- Compound: "CCOCc1c(-c2cc3cc(C)cc(OC)c3s2)c2c(N)ncnn2c1CN1CCNCC1 [Example 19, dihydrochloride]"
  Target: "mTOR (Homo sapiens, UniProt P42345)"
  Class Assignment: "high end"
- Compound: "COc1cc(C)cc2cc(-c3c(CNC(C)=O)c(CNC(C)=O)n4ncnc(N)c34)sc12"
  Target: "mTOR (Homo sapiens, UniProt P42345)"
  Class Assignment: "middle"
- Compound: "CCOCc1c(-c2cc3cc(C)cc(OC)c3s2)c2c(N)ncnn2c1CN[C@@H]1CCNC1=O [Example 8]"
  Target: "mTOR (Homo sapiens, UniProt P42345)"
  Class Assignment: "middle"
- Compound: "COc1cc(C)cc2cc(-c3c(CN[C@@H]4CCNC4=O)c(CN4CCN(C(C)=O)CC4)n4ncnc(N)c34)sc12"
  Target: "mTOR (Homo sapiens, UniProt P42345)"
  Class Assignment: "high end"
- Compound: "COc1cc(C)cc2cc(-c3c(COc4ccccc4)c(CN4CCNCC4)n4ncnc(N)c34)sc12"
  Target: "mTOR (Homo sapiens, UniProt P42345)"
  Class Assignment: "low end"
- Compound: "COc1cc(C)cc2cc(-c3c(COCC(N)=O)c(CN4CCNCC4)n4ncnc(N)c34)sc12"
  Target: "mTOR (Homo sapiens, UniProt P42345)"
  Class Assignment: "low end"
- Compound: "COc1cc(C)cc2cc(-c3c(CNC(C)=O)c(CN4CCN(C=O)CC4)n4ncnc(N)c34)sc12"
  Target: "mTOR (Homo sapiens, UniProt P42345)"
  Class Assignment: "high end"
- Compound: "COc1cc(C)cc2cc(-c3c(CNCC(C)(C)O)c(Cl)n4ncnc(N)c34)sc12"
  Target: "mTOR (Homo sapiens, UniProt P42345)"
  Class Assignment: "low end"
- Compound: "COc1cc(C)cc2cc(-c3c(CO)c(CN4CCNCC4)n4ncnc(N)c34)sc12"
  Target: "mTOR (Homo sapiens, UniProt P42345)"
  Class Assignment: "high end"
- Compound: "COc1cc(C)cc2cc(-c3c(CNC4CC4)c(CN4CCNCC4)n4ncnc(N)c34)sc12 [Example 46, trihydrochloride]"
  Target: "mTOR (Homo sapiens, UniProt P42345)"
  Class Assignment: "high end"
